# Measurement protocol: qHTS assay to identify small molecule antagonists of the estrogen receptor alpha (ER-alpha) signaling pathway using the BG1 cell line (AID 743080);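 also: BG1 cells stimulated with 17beta-estradiol alongside compound; nearly all actives have a fitted effect of over 25% in size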
# Reported conditions: BG1Luc4E2 ERE-luciferase antagonist mode, luminescence; series mostly up to 70.3 µM
Results filed as inconclusive are left out. Calls of active or inactive are those of the source. Calls follow the shape of the full dose curve.
API: response.call in true (active), false (inactive)

C[N+]1([O-])[C@@H]2CC[C@H]1CC(OC(=O)C(CO)c1ccccc1)C2 (stereo not given in full)    false

Consider the additional molecule presented here.
GET /call?item= OCC(c1ccc(Cl)cc1)c1ccc(Cl)cc1 returns the recorded outcome of this test.
true

* * *

# Measurement protocol: qHTS assay for small molecules that induce genotoxicity in human embryonic kidney cells expressing luciferase-tagged ATAD5 (AID 651632); also: nearly all actives have a fitted effect of over 15% in size
# Reported conditions: HEK293T ATAD5-luciferase induction, 16 h; series mostly up to 83.3 µM
Results filed as inconclusive are left out. Activity calls are given as the source filed them. The call rests on the fitted dose curve; in most records, active means well fitted activation curve with a large enough effect in the repeat runs; inconclusive means weak or mixed curves; inactive means no such curve, though single readings can be large or run the other way.
Reported endpoint: outcome

Worked cases, outcome given:
C1CN(P2(N3CC3)=NP(N3CC3)(N3CC3)=NP(N3CC3)(N3CC3)=N2)CCO1 (stereo not given)    inactive
C=CCN1CC[C@]23c4c5ccc(O)c4O[C@H]2[C@@H](O)C=C[C@H]3[C@H]1C5    inactive
CNC(C)Cc1ccccc1 (stereo not given)    inactive
C[C@@H](N)C(=O)c1ccccc1    inactive

Now for another entry.
Supply measured outcome of CC(C)C[C@H]1C(=O)N2CCC[C@H]2[C@]2(O)O[C@](NC(=O)[C@@H]3C[C@@H]4c5cccc6[nH]cc(c56)C[C@H]4N(C)C3)(C(C)C)C(=O)N12 in your reply.
inactive

* * *

# Measurement protocol: qHTS assay to identify small molecule antagonists of the estrogen related receptor signaling pathway with the pleiotropic PPARgamma coactivator (PGC) from Tox21 10K library - cell viability counter screen (AID 1224840); also: nearly all actives have a fitted effect of over 40% in size
# Reported conditions: PGC/ERR reporter cells viability, CellTiter-Fluor, 17.5 h; series mostly up to 92.4 µM
Inconclusive results are not listed. Calls of active or inactive are those of the source. Calls come from the whole dose curve; as a rule, active = well fitted cell-killing curve with a large enough effect in the repeat runs (not every such curve was filed as active); inconclusive = weak or mixed curves, or effect the other way; inactive = no such curve, though single readings can be large or run the other way.
API: response.call in Y = active, N = inactive

Would you please look over these solved cases?
O=C(O)/C=C/C(=O)O    N
CO/C=C(/C(=O)OC)c1ccccc1Oc1cc(Oc2ccccc2C#N)ncn1    Y
O=S(=O)(C(Cl)(Cl)Cl)C(Cl)(Cl)Cl    Y
COc1ccc(C(c2ccc(OC)cc2)C(Cl)(Cl)Cl)cc1    N
Clc1ccccc1-c1ccccc1Cl    N
Nc1ccc([N+](=O)[O-])cc1    Y
O=[N+]([O-])c1c(Cl)c(Cl)cc(Cl)c1Cl    N
CCN(CC)C(=O)Cl    N

GET /call?item= CNC(=O)Oc1cc(C)c(SC)c(C)c1 returns the recorded outcome of this test.
N

GET /call?item= O=C(Nc1ccccc1-c1ccc(Cl)cc1)c1cccnc1Cl returns the recorded outcome of this test.
N

GET /call?item= O=C1C(I)=CC(=C(c2cc(I)c(O)c(I)c2)c2ccccc2C(=O)O)C=C1I returns the recorded outcome of this test.
N

GET /call?item= Oc1c(I)cc(I)cc1I returns the recorded outcome of this test.
N

GET /call?item= Cc1ccc(N(SC(F)(Cl)Cl)S(=O)(=O)N(C)C)cc1 returns the recorded outcome of this test.
Y

GET /call?item= O=C(O)/C=C\C(=O)O returns the recorded outcome of this test.
N

GET /call?item= C[N+]1(C)[C@@H]2CC(OC(=O)[C@H](CO)c3ccccc3)C[C@H]1[C@@H]1O[C@@H]12 (stereo partly specified) returns the recorded outcome of this test.
N

GET /call?item= ClC(Cl)=C(c1ccc(Cl)cc1)c1ccccc1Cl returns the recorded outcome of this test.
N

* * *

# Measurement protocol: qHTS RealTime-Glo MT Cell Viability Assay in HepG2 cells - 32 hour (AID 1224877); also: nearly all actives have a fitted effect of over 55% in size; also: potency is read from the fitted curve at half-maximal effect
# Reported conditions: RealTime-Glo luminescence; series mostly up to 76.8 µM
Records with an inconclusive call do not appear. Calls of active or inactive are those of the source. The call rests on the fitted dose curve; in most records, active means well fitted cell-killing curve with a large enough effect in the repeat runs; inconclusive means weak or mixed curves; inactive means flat fitted curve, though single readings scatter.
Reported endpoint: Potency

Worked cases, Potency given:
Oc1c(I)cc(I)cc1I    inactive
Nc1ccc([N+](=O)[O-])cc1    inactive
CCN(CC)C(=O)Cl    inactive
O=C(c1ccccc1)C(Cl)Cl    inactive
OC(Cc1ccccc1Cl)(Cn1[nH]cnc1=S)C1(Cl)CC1 (stereo unspecified)    inactive
CCOC(=O)C(O)(c1ccc(Cl)cc1)c1ccc(Cl)cc1    inactive

Supply measured Potency of O=C(Nc1ccccc1-c1ccc(Cl)cc1)c1cccnc1Cl in your reply.
inactive

Supply measured Potency of Cc1cc(C(C)(C)c2ccc(O)c(C)c2)ccc1O in your reply.
inactive

Supply measured Potency of O=S(=O)(C(Cl)(Cl)Cl)C(Cl)(Cl)Cl in your reply.
34.7 µM (active)

Supply measured Potency of c1ccc2c(c1)Sc1ccccc1N2CC1CN2CCC1CC2 (stereo unspecified) in your reply.
23.9 µM (active)

Supply measured Potency of Clc1ccccc1-c1ccccc1Cl in your reply.
inactive

* * *

# Experimental target: Estrogen receptor (Homo sapiens)
# Measurement protocol: qHTS assay to identify small molecule agonists of the estrogen receptor alpha (ER-alpha) signaling pathway using the BG1 cell line (AID 743079); also: nearly all actives have a fitted effect of over 20% in size
# Reported conditions: BG1Luc4E2 cells, ERE-luciferase agonist, 22 h; series mostly up to 70.3 µM
Records with an inconclusive call do not appear. Activity calls are given as the source filed them. Calls come from the whole dose curve; as a rule, active = well fitted activation curve with a large enough effect in the repeat runs; inconclusive = weak or mixed curves, or effect the other way; inactive = no such curve, though single readings can be large or run the other way.
API: response.call in 1 (yes) = active, 0 (no) = inactive

Would you please look over these solved cases?
c1ccc(C2(N3CCCC3)CCCCC2)cc1    0 (no)
O=C(C[C@@H]1NCCC[C@H]1O)Cn1cnc2cc(Br)c(Cl)cc2c1=O    0 (no)
C[C@H]1[C@H]2Cc3ccc(O)cc3[C@]1(C)CCN2CCc1ccccc1    0 (no)
C=CCC1(C(C)CCC)C(=O)N=C(S)NC1=O (stereo unspecified)    0 (no)
C[C@]12CC[C@H](OS(=O)(=O)O)CC1=CC[C@@H]1[C@@H]2CC[C@]2(C)C(=O)CC[C@@H]12    1 (yes)
C#CC(C)(O)CC (stereo unspecified)    0 (no)
CC1(C)[C@H](C=C(Cl)Cl)[C@H]1C(=O)OCc1c(F)c(F)cc(F)c1F    0 (no)
C[C@H]1CC[C@]2(NC1)O[C@H]1C[C@H]3[C@@H]4CC[C@H]5C[C@@H](O)CC[C@]5(C)[C@H]4CC[C@]3(C)[C@H]1[C@@H]2C    0 (no)
CCCCCCCCCC(=O)O[C@H]1CC[C@H]2[C@@H]3CCC4=CC(=O)CC[C@]4(C)[C@H]3CC[C@]12C    1 (yes)
COC([CH2][Hg])CNC(=O)c1ccccc1OCC(=O)O (stereo unspecified)    0 (no)

GET /call?item= CCOC(=O)C1(c2ccccc2)CCCN(C)CC1 (stereo unspecified) returns the recorded outcome of this test.
0 (no)

GET /call?item= NCC[C@H](O)C(=O)N[C@@H]1C[C@H](N)[C@@H](O[C@H]2O[C@H](CN)[C@@H](O)[C@H](O)[C@H]2N)[C@H](O[C@@H]2O[C@H](CO)[C@@H](O)[C@H]2O)[C@H]1O returns the recorded outcome of this test.
0 (no)

GET /call?item= CCC(=O)O[C@]1(c2ccccc2)CCN(C)C[C@H]1C returns the recorded outcome of this test.
0 (no)

GET /call?item= CC(=O)OC1CN2CCC1CC2 (stereo unspecified) returns the recorded outcome of this test.
0 (no)

GET /call?item= CCNC(C)Cc1cccc(C(F)(F)F)c1 (stereo unspecified) returns the recorded outcome of this test.
0 (no)

GET /call?item= O=P1(N(CCCl)CCCl)NC(OO)CCO1 (stereo unspecified) returns the recorded outcome of this test.
0 (no)

GET /call?item= CC(=O)Oc1ccc2c3c1O[C@H]1[C@@H](OC(C)=O)C=C[C@H]4[C@@H](C2)N(C)CC[C@@]341 returns the recorded outcome of this test.
0 (no)

GET /call?item= O=c1[nH]cc(N(CCCl)CCCl)c(=O)[nH]1 returns the recorded outcome of this test.
0 (no)

GET /call?item= CCCCCCC(=O)O[C@H]1CC[C@H]2[C@@H]3CC[C@H]4CC(=O)C=C(C)[C@]4(C)[C@H]3CC[C@]12C returns the recorded outcome of this test.
1 (yes)

GET /call?item= COc1ccc(OC)c(C[C@H](C)N)c1 returns the recorded outcome of this test.
0 (no)

GET /call?item= O=c1ccc2cc(O[C@@H]3O[C@H](CO)[C@@H](O)[C@H](O)[C@H]3O)c(O)cc2o1 returns the recorded outcome of this test.
0 (no)

* * *

# Experimental target: Acetylcholinesterase (Homo sapiens) (UniProt P22303)
# Sequence (P22303 whole entry, looked up): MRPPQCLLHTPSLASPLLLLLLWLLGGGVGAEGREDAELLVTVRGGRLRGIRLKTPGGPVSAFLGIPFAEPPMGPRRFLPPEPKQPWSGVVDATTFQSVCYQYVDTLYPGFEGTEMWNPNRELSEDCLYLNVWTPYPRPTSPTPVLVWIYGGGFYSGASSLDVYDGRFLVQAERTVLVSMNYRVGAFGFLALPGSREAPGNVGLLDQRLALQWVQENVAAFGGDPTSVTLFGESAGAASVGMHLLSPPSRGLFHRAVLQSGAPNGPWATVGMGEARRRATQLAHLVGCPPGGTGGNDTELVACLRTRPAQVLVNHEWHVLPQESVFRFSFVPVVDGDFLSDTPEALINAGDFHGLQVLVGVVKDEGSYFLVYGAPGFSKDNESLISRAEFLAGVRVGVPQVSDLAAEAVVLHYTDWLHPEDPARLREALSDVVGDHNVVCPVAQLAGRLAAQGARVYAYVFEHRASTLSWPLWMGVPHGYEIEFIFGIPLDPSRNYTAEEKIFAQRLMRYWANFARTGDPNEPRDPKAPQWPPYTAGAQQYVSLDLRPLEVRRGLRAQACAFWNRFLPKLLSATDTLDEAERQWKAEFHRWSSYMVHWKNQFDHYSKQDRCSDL
# Measurement protocol: Acetylcholinesterase (AChE) small molecule antagonists: enzyme-based qHTS assay (AID 1347397); also: nearly all actives have a fitted effect of over 55% in size; also: potency is read from the fitted curve at half-maximal effect
# Reported conditions: AChE enzyme activity inhibition; series mostly up to 115 µM
Calls of active or inactive are those of the source. Calls come from the whole dose curve.
Reported endpoint: Potency

Worked cases, Potency given:
CCCCCCCO    inactive
Cc1c(C)c2c(c(C)c1O)CC[C@@](C)(CCC[C@H](C)CCC[C@H](C)CCCC(C)C)O2    inactive
CCO/C([O-])=N/c1c[n+](N2CCOCC2)no1    inactive
C=CCc1cc(OC)c(O)c(C(=O)NCCO)c1    inactive
CCCCCCC1CCCC(=O)O1 (centres undefined)    inactive

Supply measured Potency of CCCCCCCCCCn1cc[n+](CCCCCCCCCC)c1C in your reply.
35.6 µM (active)

Supply measured Potency of COc1nccnc1CC(C)C in your reply.
inactive

Supply measured Potency of COc1ccc([C@@H]2Sc3ccccc3N(CCN(C)C)C(=O)[C@@H]2OC(C)=O)cc1 in your reply.
inactive

Supply measured Potency of CCCCCCCCCCCCOCCO in your reply.
inactive

Supply measured Potency of CCCCCCCC(OC)OC in your reply.
inactive

Supply measured Potency of CCCCC(CC)COC(C)=O (centres undefined) in your reply.
inactive

Supply measured Potency of CN1C(C(=O)Nc2ccccn2)=C(O)c2ccccc2S1(=O)=O in your reply.
inactive

Supply measured Potency of CCNC(=O)N1CCN(CCCC(c2ccc(F)cc2)c2ccc(F)cc2)CC1 in your reply.
inactive

Supply measured Potency of O=C(O)c1cc(C(=O)O)cc([N+](=O)[O-])c1 in your reply.
inactive
